Data provenance is PubChem BioAssay AID2060483.

- System: K24384-001-R-PDC complex spheroids, viability;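 also: spheroids exposed to compounds for seven days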
- Assay Text: Anticancer human tumor K24384-001-R-PDC patient-derived pancreatic adenocarcinoma cell line growth inhibition [GQUAD]
- Condition Details: second compound 0.0316 µM; first compound 0.1 µM; hits give low values

>  <Molecule>
CC(C)n1c(=O)n(C)c2cnc3cc(F)c(-c4ccc(OCCCN5CCCCC5)nc4)cc3c21 + Cc1[nH]c2ccc(F)cc2c1-c1nc2c3cccnc3c3ncccc3c2[nH]1

>  <Readout Unit>
%

>  <viability, T/C>
96.1

$$$$
>  <Molecule>
CC1COCCN1c1cc(C2(O)CC3CCC(C2)O3)c2cnn(-c3ccn[nH]3)c2n1 (stereo not given) + Cc1[nH]c2ccc(F)cc2c1-c1nc2c3cccnc3c3ncccc3c2[nH]1

>  <Readout Unit>
%

>  <viability, T/C>
57.4

$$$$
>  <Molecule>
O=C(NO)c1cnc(N2CCN(S(=O)(=O)c3ccc4ccccc4c3)CC2)nc1 + Cc1cnc(CNC(=O)c2c(=O)c3ccc(N4CCCN(C)CC4)nc3n3c2sc2ccccc23)cn1

>  <Readout Unit>
%

>  <viability, T/C>
78

$$$$
>  <Molecule>
COc1ncnc(C2CC2)c1-c1ncc2cnn(Cc3ccc(-c4nc(C(F)(F)F)cn4C(C)C)cc3)c2n1 + Cc1[nH]c2ccc(F)cc2c1-c1nc2c3cccnc3c3ncccc3c2[nH]1

>  <Readout Unit>
%

>  <viability, T/C>
109

$$$$
>  <Molecule>
Nc1ccn(C2OC(CO)C(O)C2(F)F)c(=O)n1 (stereo not given) + Cc1[nH]c2ccc(F)cc2c1-c1nc2c3cccnc3c3ncccc3c2[nH]1

>  <Readout Unit>
%

>  <viability, T/C>
62.5

$$$$
>  <Molecule>
COc1ncnc(C2CC2)c1-c1ncc2cnn(Cc3ccc(-c4nc(C(F)(F)F)cn4C(C)C)cc3)c2n1 + CN(C)c1ccc(Nc2c3ccc(NC(=O)CCN4CCCC4)cc3nc3cc(NC(=O)CCN4CCCC4)ccc23)cc1

>  <Readout Unit>
%

>  <viability, T/C>
107

$$$$
>  <Molecule>
CCCS(=O)(=O)Nc1ccc(F)c(C(=O)c2c[nH]c3ncc(-c4ccc(Cl)cc4)cc23)c1F + CN(C)c1ccc(Nc2c3ccc(NC(=O)CCN4CCCC4)cc3nc3cc(NC(=O)CCN4CCCC4)ccc23)cc1

>  <Readout Unit>
%

>  <viability, T/C>
102

$$$$
>  <Molecule>
O=C(NO)c1cnc(N2CCN(S(=O)(=O)c3ccc4ccccc4c3)CC2)nc1 + Cc1[nH]c2ccc(F)cc2c1-c1nc2c3cccnc3c3ncccc3c2[nH]1

>  <Readout Unit>
%

>  <viability, T/C>
105

$$$$
>  <Molecule>
COc1cc(C2c3cc4c(cc3C(OC3OC5COC(C)OC5C(O)C3O)C3COC(=O)C23)OCO4)cc(OC)c1O (stereo not given) + CN(C)c1ccc(Nc2c3ccc(NC(=O)CCN4CCCC4)cc3nc3cc(NC(=O)CCN4CCCC4)ccc23)cc1

>  <Readout Unit>
%

>  <viability, T/C>
87.1

$$$$
>  <Molecule>
CC(=O)O[C@H]1C(=O)[C@@]2(C)[C@H]([C@H](OC(=O)c3ccccc3)[C@]3(O)C[C@H](OC(=O)[C@H](O)[C@@H](NC(=O)c4ccccc4)c4ccccc4)C(C)=C1C3(C)C)[C@]1(OC(C)=O)CO[C@@H]1C[C@@H]2O + Cc1cnc(CNC(=O)c2c(=O)c3ccc(N4CCCN(C)CC4)nc3n3c2sc2ccccc23)cn1

>  <Readout Unit>
%

>  <viability, T/C>
27.2

$$$$
